Data origin, for the record: patent US10174016B2

biological target: UniProt:P56373; experiment: Intracellular calcium measurement (FLIPR, Fluo-4) of antagonist activity at human P2X3 receptors; format: cell-based; conditions: human P2X3, FLIPR calcium assay, agonist α,β-Me-ATP; read-out: hP2X3 IC50
PROPERTY NAME: IC50 (nM)

Returns the measured IC50 for the input molecule. Input: Cc1cnc([C@@H](C)NC(=O)c2cc(OCC3CCOCC3)cc(-c3ncc(C)s3)c2)cn1
7

Returns the measured IC50 for the input molecule. Input: Cc1cnc(-c2cc(OC[C@H]3COCC(=O)N3)cc(C(=O)N[C@H](C)c3cnc(C(F)(F)F)nc3)c2)s1
22

(I) COC(C)(C)COc1cc(C(=O)N[C@H](C)c2ccc(Cl)cn2)cc(-c2ncc(Cl)s2)c1
(II) Cc1ccc([C@@H](C)NC(=O)c2cc(OC[C@@H]3CCOC3)cc(-c3ncc(C4CCC4)s3)c2)nn1
(III) Cc1cnc(-c2cc(O[C@@H]3CC[C@H]4[C@H]3OCCN4C)cc(C(=O)N[C@H](C)c3cnc(C(F)(F)F)nc3)c2)s1
Form: Sort by [IC50] Order [ ascending ] Lab note: record answer as labels in requested order.
III, I, II
(III: 7 nM, I: 15 nM, II: 45 nM)

(A) Cc1cnc(-c2cc(OC[C@H]3CN(C)C(=O)O3)cc(C(=O)N[C@H](C)c3cnc(C(F)(F)F)nc3)c2)s1
(B) CCCN1CC2(COc3cc(C(=O)N[C@H](C)c4cnc(C(F)(F)F)nc4)cc(-c4ncc(C)s4)c3)CC1CO2 (stereo partly shown)
For A and B , which recorded IC50 is lower? Respond with the label that goes with your answer.
A

---

target: human P2X2/3 receptor (Homo sapiens (Human), UniProt P56373+Q9UBL9); experiment: Intracellular calcium measurement (FLIPR, Fluo-4) of antagonist activity at human P2X2/3 receptors; assay type: cell-based; details: human P2X2/3, FLIPR calcium assay, agonist α,β-Me-ATP; read-out: hP2X2/3 IC50
Sequence (P56373 whole entry): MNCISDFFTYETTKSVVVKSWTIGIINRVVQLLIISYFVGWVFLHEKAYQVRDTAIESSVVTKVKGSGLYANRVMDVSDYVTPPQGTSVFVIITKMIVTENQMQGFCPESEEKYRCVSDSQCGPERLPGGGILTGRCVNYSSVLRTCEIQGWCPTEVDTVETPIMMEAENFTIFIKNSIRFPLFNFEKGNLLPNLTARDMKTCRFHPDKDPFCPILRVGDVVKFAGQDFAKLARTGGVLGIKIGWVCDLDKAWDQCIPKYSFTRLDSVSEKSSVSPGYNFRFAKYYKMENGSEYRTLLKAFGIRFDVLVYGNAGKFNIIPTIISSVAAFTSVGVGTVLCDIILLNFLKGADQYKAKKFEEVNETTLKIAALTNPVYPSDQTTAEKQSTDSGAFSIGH
Sequence (Q9UBL9 whole entry): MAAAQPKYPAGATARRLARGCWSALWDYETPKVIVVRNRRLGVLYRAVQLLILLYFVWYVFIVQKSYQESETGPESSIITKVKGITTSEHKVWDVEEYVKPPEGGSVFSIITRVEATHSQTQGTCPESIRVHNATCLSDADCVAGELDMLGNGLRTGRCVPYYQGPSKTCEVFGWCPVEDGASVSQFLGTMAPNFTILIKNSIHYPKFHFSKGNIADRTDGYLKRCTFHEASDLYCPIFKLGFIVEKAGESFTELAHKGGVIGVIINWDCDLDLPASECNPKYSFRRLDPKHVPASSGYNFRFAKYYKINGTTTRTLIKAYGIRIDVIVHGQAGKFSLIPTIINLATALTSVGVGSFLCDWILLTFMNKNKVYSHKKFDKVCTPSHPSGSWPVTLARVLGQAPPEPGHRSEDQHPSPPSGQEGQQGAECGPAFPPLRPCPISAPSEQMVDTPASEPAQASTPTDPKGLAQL
pIC50: −log10 of the molar value.
PROPERTY NAME: pIC50

Reference set (3 entries):
Returns the measured pIC50 for the input molecule. Input: Cc1ncc([C@@H](C)NC(=O)c2cc(OC3CCN(CC(F)F)CC3)cc(-c3ncc(C)s3)c2)cn1
7.15

Returns the measured pIC50 for the input molecule. Input: Cc1cnc(-c2cc(OC3CCN(CC(F)F)CC3)cc(C(=O)N[C@H](C)c3cnc(C(F)(F)F)nc3)c2)s1
7.57

Returns the measured pIC50 for the input molecule. Input: Cc1cnc(-c2cc(OC3CCN(CC(F)F)CC3)cc(C(=O)N[C@@H](C)c3cnc(C(F)(F)F)nc3)c2)s1
5.59

(1) Cc1ccc(CNC(=O)c2cc(OC3CCOCC3)cc(-c3ncc(C4CCC4)s3)c2)nn1
(2) Cc1ccc([C@@H](C)NC(=O)c2cc(O[C@@H]3CCOC3)cc(-c3ncc(C)s3)c2)cn1
(3) Cc1cnc(-c2cc(OCC3CC3)cc(C(=O)N[C@H](C)c3nnc(C)s3)c2)s1
(4) Cc1cnc(CNC(=O)c2cc(OCC3CCOCC3)cc(-c3ncc(C)s3)c2)cn1
Rank the 4 molecules: largest pIC50 first, smallest last. Lab note: record answer as labels in requested order.
3, 2, 1, 4
